meta.source: PubChem BioAssay

assay procedure: osmotic lysis modulators in infected erythrocytes, primary screen, PSAC antagonist project, cell-based, P. falciparum Indochina, OD700, 3 h (AID 1156)
experimental context: called active from +8 up or from −8 down
The source made the active and inactive calls.
Possible outcomes: t (active), f (inactive)

| compound | assigned class |
| --- | --- |
| CO[C@H]1COC(=O)CC=C[C@H](C)COC(=O)[C@@H](OCc2ccccc2)C=C[C@@H]1C | f |
| CC(=O)NCCCC[C@@H]1NC(=O)[C@@H]2C[C@H](C(=O)NCCCCCCN(C)C)[C@H](c3ccc(O)cc3)N2C1=O | f |
| Cc1ccc(S[C@]2(C(=O)O)CC(=O)N(Cc3ccccc3)[C@@H]2c2ccc(CO)cc2)cc1 | f |
| COCCCNC(=O)[C@@H]1c2ccccc2C(=O)N(CC23CC4CC(CC(C4)C2)C3)[C@H]1c1ccc(CO)cc1 | f |
| C=CCC(OC(C)=O)[C@@H]1[C@@H](N(Cc2ccc(-c3ccccc3)cc2)C(=O)c2ccc(-c3ccccc3)cc2)c2cc(OCCCO)ccc2N1C(=O)Cc1ccc(OC)cc1 (stereo partly specified) | f |
| CO[C@H]1O[C@H](CO)[C@@H](OC(=O)Nc2ccccc2)[C@H](OC(=O)Nc2ccc3c(c2)OCO3)[C@@H]1OC(=O)Nc1ccc2c(c1)OCO2 | f |
| CC(C)[Si]1(C(C)C)O[C@@H](c2ccccc2)c2cc(C3CC3)nc(-c3ccc(Oc4ccccc4)cc3)c21 | f |
| N#Cc1ccc(NN2C(C(O)CCc3ccccc3)C=CC3C(=O)N(c4ccccc4)C(=O)C32)cc1 (stereo unspecified) | f |
| O=C1O[C@@H](c2ccccc2)[C@@H](c2ccccc2)N2[C@@H](c3ccccc3OCCO)[C@]3(C(=O)Nc4ccc(C#CC5=CCCCC5)cc43)[C@@H](C(=O)O)[C@H]12 | t |
| CCOC(=O)C1=CCC(c2cccc3ccccc23)N(S(=O)(=O)c2ccc(C)cc2)C1 (stereo unspecified) | f |
| CCOC(=O)[C@H]1C/C=C/C[C@H](C(=O)OCC)C(=O)O[C@H]2[C@@H](OC)O[C@H](CO)[C@@H](OC(=O)Nc3ccc(Br)cc3)[C@@H]2OC1=O | f |

* * *

Test system: Human papillomavirus type 1a E7 protein (residues 1-88)
assay procedure: HPV1a E7 small-molecule binders, primary screen, biochemical, small-molecule microarray, residues 1-88, 635 nm (AID 1129)
experimental context: small-molecule microarray binding, fluorescence 635 nm; higher = more signal
Below: a set of entries, each annotated with reported composite z-score.
property label: composite z-score

| molecule | assayed system | property label | recorded number |
| --- | --- | --- | --- |
| Cc1ccc(S[C@]2(C(=O)NCCN3CCOCC3)CC(=O)N(C3Cc4ccccc4C3)[C@@H]2c2ccc(CO)cc2I)cc1 | Human papillomavirus type 1a E7 protein (residues 1-88) | composite z-score | -0.521 |
| CC(=O)NCCCC[C@@H]1NC(=O)[C@@H]2C[C@H](C(=O)NCCCCCCN(C)C)[C@H](c3ccc(O)cc3)N2C1=O | Human papillomavirus type 1a E7 protein (residues 1-88) | composite z-score | 1.26 |
| Cc1ccc(S[C@]2(C(=O)O)CC(=O)N(Cc3cc(C(F)(F)F)cc(C(F)(F)F)c3)[C@@H]2c2ccc(CO)cc2I)cc1 | Human papillomavirus type 1a E7 protein (residues 1-88) | composite z-score | -0.664 |

* * *

Below: a set of entries, each annotated with reported z-score.
assay procedure: E. coli acrAB mutant growth effects, primary screen, E. coli filamentation inducers, strain DRC39, OD650, 48 h (AID 1179);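 note: screen aims at cell division blockers that make cells filament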
experimental context: E. coli DRC39 delta-acrAB growth, higher = more signal, called active from +8 up or from −8 down
Active and inactive are the calls of the source.

| compound | z-score |
| --- | --- |
| O=C1C2C=CC(C(O)c3ccccc3)N(n3cnnc3)C2C(=O)N1Cc1ccccc1 (stereo not given) | -1.03 (inactive) |
| CO[C@H]1COC(=O)[C@@H](Cc2ccccc2)NC(=O)[C@@H](C)COC(=O)CC=C[C@@H]1C | 0.639 (inactive) |
| O=C1c2ccccc2[C@](Cc2ccccc2I)(C(=O)NCC(F)(F)F)[C@H](c2ccc(CO)cc2)N1Cc1ccccc1C(F)(F)F | 0.23 (inactive) |
| COCCOC(=O)N1C(=O)[C@@]2(c3cc(C#CCNC(N)=O)ccc31)[C@H](c1ccc(OCCO)cc1)N1[C@H](c3ccccc3)[C@H](c3ccccc3)OC(=O)[C@H]1[C@@H]2C(=O)Nc1nc2ccccc2s1 | 0.782 (inactive) |
| CCOC(=O)C[C@H]1[C@H](OC(=O)c2cc3ccccc3oc2=O)[C@@H](NC(=O)C2CCCCC2)c2cc(OCCCO)ccc2N1C(=O)c1ccc2ccccc2n1 | 0.0214 (inactive) |
| O=C1c2ccccc2[C@@]2(Cc3ccccc3N(CC(F)(F)F)C2=O)[C@H](c2ccc(CO)cc2)N1C1CCCCC1 | -0.411 (inactive) |
| COCC(=C=CC[C@H](O)c1ccc(OCCO)cc1)C[C@H](O)c1ccccn1 | 1.21 (inactive) |
| COc1ccc(CCNC(=O)[C@@]2(c3ccc([N+](=O)[O-])cc3)CC(=O)N(C(C)C)[C@@H]2c2ccc(CO)cc2)cc1 | 0.479 (inactive) |
| C[N+](C)(C)CCCCNC(=O)[C@@H]1C[C@@H]2C(=O)N3CCC[C@H]3C(=O)N2[C@@H]1c1cccc(OCCO)c1 | 0.0567 (inactive) |
| CC[C@H]1C2=C3C(CC[C@H]4C(OC)OC[C@](C)([C@@H]34)N(C(=O)OC(C)(C)C)C2)C(CO)C1CO (stereo not given in full) | 0.753 (inactive) |

* * *

assay procedure: small-molecule binders of probe aInhba, primary screen, biochemical, small-molecule microarray, 635/667 nm fluorescence (AID 1148);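 note: score merges 667nm spot fluorescence with signal-to-noise for antibody binding to printed compounds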
experimental context: higher = more signal

| molecule | composite z-score |
| --- | --- |
| O=C(CS)NCCCCCNC(=O)[C@H]1C[C@H]2C(=O)N[C@@H](Cc3ccccc3)C(=O)N2[C@H]1c1ccc(O)cc1 | 0.0018 |
| CC(C)[Si]1(C(C)C)OCc2cc(C3CC3)nc(-c3ccccc3)c21 | -0.108 |
| CO[C@H]1O[C@H](CO)[C@@H](OC(=O)Nc2ccccc2)[C@H](OC(=O)Nc2ccc3c(c2)OCO3)[C@@H]1OC(=O)Nc1ccc2c(c1)OCO2 | -0.0079 |
| CCCC/C=C/[C@H]([C@@H](O)Cc1ccccc1)N(CC#Cc1ccccc1)Cc1ccccc1Br | -0.302 |
| C=CCC(OC(C)=O)[C@@H]1[C@@H](N(Cc2cccc3ccccc23)C(=O)Cc2ccc(F)cc2)c2cc(OCCCO)ccc2N1C(=O)Cc1ccc2ccccc2c1 (stereo partly drawn) | -0.101 |
| Cc1ccc([C@@H]2CC=C(C(=O)O)[C@H](c3ccccc3)N2S(=O)(=O)c2ccc(C)cc2)cc1 | 0.277 |
| COC(=O)[C@@]1(Cc2ccc(OC)cc2)[C@H]2c3cc(C(=O)N(C)C)n(Cc4ccc(C)c(F)c4F)c3C[C@H]2CN1C(=O)c1ccccc1 | 0.0179 |
| COCCOC(=O)N1C(=O)[C@@]2(c3cc(C#CCC(C(=O)OC)C(=O)OC)ccc31)[C@H](C(=O)N1CCN(c3ncccn3)CC1)[C@H]1C(=O)O[C@H](c3ccccc3)[C@H](c3ccccc3)N1[C@@H]2c1ccc(O)cc1 | 0.0386 |
| COc1ccc(C(=O)Nc2ccc(CN3C(=O)[C@]4(O[C@H](CCn5cc(CCO)nn5)[C@@H]([Si](C)(C)c5ccc(OC)cc5)[C@@H]4C)c4ccccc43)cc2)cc1 | 0.279 |
| C=CC(=O)O[C@@H](Cc1ccccc1)[C@H]1C2C=CCCC=C2CN1Cc1cccc(Cl)c1 (stereo partly drawn) | -0.082 |
| [N-]=[N+]=NCc1ccccc1C[C@]1(C(N)=O)N=C(c2ccc(OCCCO)cc2)O[C@H]1c1ccccc1CN=[N+]=[N-] | 0.17 |
| Cc1ccc(N2C(=O)c3ccccc3[C@@H](C(=O)NCc3ccccc3)[C@@H]2c2ccc(CO)cc2)nc1 | 0.0028 |
| CO[C@H]1COC(=O)[C@H](CCSC)NC(=O)CC=C[C@@H](C)COC(=O)[C@@H](OCc2ccccc2)C=C[C@@H]1C | -0.0762 |
| CC(C)(C)OC(=O)CC[C@]1(C(=O)NCCN2CCOCC2)N=C(c2ccc(OCCCO)cc2)O[C@H]1c1ccccc1CN=[N+]=[N-] | 0.0386 |
| CO[C@@H]1COC(=O)[C@H](C)NC(=O)CC=C[C@@H](C)[C@H](OC)COC(=O)[C@H](C)NC(=O)CC=C[C@H]1C | 0.0659 |
| C[C@@H]1C=CCC(=O)OC[C@H]2O[C@@H](C=C[C@@H]2O)[C@H](C)C=CCC(=O)OC[C@H]2O[C@H]1C=C[C@@H]2O | 0.357 |
| CO[C@H]1COC(=O)CC=C[C@H](C)[C@@H](OC)COC(=O)[C@H](Cc2ccccc2)NC(=O)CC=C[C@@H]1C | -0.408 |
| CCCNC(=O)[C@@H]1c2ccccc2C(=O)N(C2CCCCC2)[C@H]1c1ccc(CO)cc1 | 0.0589 |
